- System: mouse red blood cells
- protocol.text: Hemolytic assay
- Format: cell-based
- condition.details: 50 μM peptide (highest tested concentration); 8% mouse red blood cells in PBS, 1 h, 37 °C, absorbance 414 nm, vs 0.1% Triton X-100
Where no end group is shown, it is not given here.
observation.type: hemolytic activity (%)
Answers are plain numbers, in %.

Below are worked cases with known answers.
In [3]: df
Out[3]:
                                  substance    observation_type  measured
0             GILGKLWEGVKSIW-NH2 [Hp1404-W]  hemolytic activity      15.9
1  GILGKLWEGVKSIF-NH2 [Hp1404, reference compound]  hemolytic activity      49.2

Next substance, hemolytic activity to be filled in.
What value of measured hemolytic activity is listed for GILGKLWEGVKSIL-NH2 [Hp1404-L] ?
45.8
